The reported measurements were obtained from patent US9493426B2.

Consider the following IC50 values measured on FGFR1 (h) (Homo sapiens, UniProt P11362).
Sequence (P11362 22-822): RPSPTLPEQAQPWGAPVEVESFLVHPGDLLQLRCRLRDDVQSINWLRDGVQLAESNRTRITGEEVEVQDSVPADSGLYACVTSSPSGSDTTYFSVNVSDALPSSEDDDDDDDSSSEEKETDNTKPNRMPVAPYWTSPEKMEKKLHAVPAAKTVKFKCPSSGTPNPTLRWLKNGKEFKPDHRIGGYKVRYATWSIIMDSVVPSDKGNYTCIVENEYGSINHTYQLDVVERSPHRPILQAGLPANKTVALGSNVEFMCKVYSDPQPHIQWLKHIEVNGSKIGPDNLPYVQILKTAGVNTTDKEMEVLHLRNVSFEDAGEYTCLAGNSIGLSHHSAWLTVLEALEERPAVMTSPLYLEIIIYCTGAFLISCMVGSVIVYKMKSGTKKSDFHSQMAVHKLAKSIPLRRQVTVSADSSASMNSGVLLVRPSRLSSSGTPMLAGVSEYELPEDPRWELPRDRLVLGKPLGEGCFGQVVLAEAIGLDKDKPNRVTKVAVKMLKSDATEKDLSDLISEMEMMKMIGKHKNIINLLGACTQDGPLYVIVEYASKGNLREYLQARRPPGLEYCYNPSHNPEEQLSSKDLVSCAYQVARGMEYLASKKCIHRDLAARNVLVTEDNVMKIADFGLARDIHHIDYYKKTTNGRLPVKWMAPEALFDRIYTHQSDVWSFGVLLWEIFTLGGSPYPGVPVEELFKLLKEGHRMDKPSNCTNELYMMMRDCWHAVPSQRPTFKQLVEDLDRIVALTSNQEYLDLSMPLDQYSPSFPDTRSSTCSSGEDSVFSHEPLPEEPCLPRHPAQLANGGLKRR
Please respond with the number in nM and leave the unit unwritten.

Kindly note the recorded IC50 for COc1cc(OC)c(Cl)c(N(CCO)c2ccc3ncn(-c4cnn(C)c4)c(=O)c3c2)c1Cl , which is 12.6

Reported IC50 for COc1cc(OC)cc(N(CCNC(C)C)c2ccc3ncn(-c4cnn(C)c4)c(=O)c3c2)c1 was 5.01

# IC50 of COc1cc(OC)c(F)c(N(CCNC(C)C)c2ccc3ncn(-c4cnn(C)c4)c(=O)c3c2)c1 = 7.94

---

study.system: FGFR2 (h) (Homo sapiens, UniProt P21802)
Sequence (P21802 22-821): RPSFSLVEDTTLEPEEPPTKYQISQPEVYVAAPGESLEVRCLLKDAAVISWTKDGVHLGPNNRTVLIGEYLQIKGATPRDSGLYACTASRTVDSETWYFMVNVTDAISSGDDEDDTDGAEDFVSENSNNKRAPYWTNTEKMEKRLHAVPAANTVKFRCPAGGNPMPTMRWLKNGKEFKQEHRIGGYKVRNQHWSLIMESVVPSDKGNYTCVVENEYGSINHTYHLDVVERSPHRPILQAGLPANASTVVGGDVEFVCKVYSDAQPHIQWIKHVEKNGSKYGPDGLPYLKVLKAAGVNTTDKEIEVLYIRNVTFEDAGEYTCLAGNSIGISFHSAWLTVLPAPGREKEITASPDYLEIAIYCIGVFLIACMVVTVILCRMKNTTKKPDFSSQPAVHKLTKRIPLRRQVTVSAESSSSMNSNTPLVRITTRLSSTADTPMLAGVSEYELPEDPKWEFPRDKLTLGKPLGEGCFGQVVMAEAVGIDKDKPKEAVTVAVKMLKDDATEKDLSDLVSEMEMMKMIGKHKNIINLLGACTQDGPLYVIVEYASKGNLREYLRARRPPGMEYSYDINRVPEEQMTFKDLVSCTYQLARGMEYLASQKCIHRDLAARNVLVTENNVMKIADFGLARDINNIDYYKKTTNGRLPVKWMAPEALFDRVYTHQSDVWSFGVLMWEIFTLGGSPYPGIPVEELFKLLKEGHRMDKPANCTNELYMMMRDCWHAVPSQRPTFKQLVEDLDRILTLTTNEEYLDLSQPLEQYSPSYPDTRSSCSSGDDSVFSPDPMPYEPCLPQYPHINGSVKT
procedure.summary: FGFR2 (enzymatic assay), TR-FRET
Assay type: biochemical
recorded.metric: IC50 (nM)
API: value field is a number in nM; no unit string.

Looking up COc1cc(OC)c(Cl)c(N(Cc2ncc[nH]2)c2ccc3ncn(-c4cnn(C)c4)c(=O)c3c2)c1Cl , I found its IC50 recorded as 15.8

Record summary for COc1cc(OC)c(F)c(N(Cc2ncc[nH]2)c2ccc3ncn(-c4cnn(C)c4)c(=O)c3c2)c1 : reported IC50 = 5.01
